Source listed as ChEMBL document CHEMBL2321649.

Recorded IC50 by entry
system: B16; experiment: Cytotoxicity against mouse B16 cells after 48 hrs by MTT assay; type: functional, cell-based; conditions: B16, 48 h
The reply should be a number in nM, with the unit left off.

The examples below pair each entry with its known result.
compound | measured-result
COc1cc(C2CC2/C=C/c2ccccc2)cc(OC)c1OC (racemic) | 620
COc1ccc(C2CC2c2cc(OC)c(OC)c(OC)c2)cc1[N+](=O)[O-] (racemic) | 15400

Recorded IC50 of "COc1ccc([C@@H]2C[C@@H]2c2cc(OC)c(OC)c(OC)c2)cc1O" , please.
300

Recorded IC50 of "COc1cc([C@@H]2C[C@@H]2/C=C/c2ccccc2)cc(OC)c1OC" , please.
570

Recorded IC50 of COc1ccc(C2CC2c2cc(OC)c(OC)c(OC)c2)cc1N (racemic) , please.
290
